Tested on: A549
Procedure Details: Cytotoxicity against human A549 cells after 24 hrs by TB dye exclusion assay
Assay type: functional, cell-based
Condition Description: A549, 24 h
Readout Kind: IC50 (µM)
A number alone suffices; assume µM.

Please give the measured IC50 for this compound: C=C1OC(=O)/C(=C/CCCCCCCCCCCCC)[C@@H]1O
4.17

Data provenance is ChEMBL document CHEMBL1157401.
